Data credit: paper PMC12292835

assay-system: T1, FITC-labeled AC413(6–25) with Y25P mutation (fluorescein isothiocyanate (FITC) on the N-terminus)
T1 construct: AC413, an antagonist amylin analog, residues 6-25 (20 amino acids) with Y25P; also called FITC-AC413(6–25) Y25P; AC413(6–25) Y25P; source: synthetic peptide (custom-synthesized, Genscript, HPLC-purified)
experiment-summary: fluorescence polarisation; saturation binding format; 10 nM FITC-labeled peptide probe, purified receptor ECD at rising concentrations; 1 h at room temperature; anisotropy; mean pKD of at least three independent experiments
condition-notes: both partners purified
endpoint: log10 of Kd (log10 of the value in nM)
Parameter value (number): base-10 log of Kd in nM.

Known results for binders:
binder	obs-value
amylin receptor 1 extracellular domain with calcitonin receptor N124A (hRAMP1.24–111-(GSA)3-hCTR.34–141.N124A-H6) (receptor, N-glycosylated (sites not given)) TTACQEANYGALLRELCLTQFQVDMEAVGETLWCDWGRTIRSYRELADCTWHMAEKLGCFWPNAEVDRFFLAVHGRYFRSCPISGRAVGSAGSAGSAIEPKPFLYVVGRKKMMDAQYKCYDRMQQLPAYQGEGPYCNRTWDGWLCWDDTPAGVLSYQFCPDYFPDFDPSEKVTKYCDEKGVWFKHPEANRTWSNYTMCNAFTPEK	2.67
amylin receptor 1 extracellular domain with calcitonin receptor D97E (hRAMP1.24–111-(GSA)3-hCTR.34–141.D97E-H6) (receptor, N-glycosylated (sites not given)) TTACQEANYGALLRELCLTQFQVDMEAVGETLWCDWGRTIRSYRELADCTWHMAEKLGCFWPNAEVDRFFLAVHGRYFRSCPISGRAVGSAGSAGSAIEPKPFLYVVGRKKMMDAQYKCYDRMQQLPAYQGEGPYCNRTWDGWLCWDDTPAGVLSYQFCPEYFPDFDPSEKVTKYCDEKGVWFKHPENNRTWSNYTMCNAFTPEK	1.91
amylin receptor 1 extracellular domain, wild type (hRAMP1.24–111-(GSA)3-hCTR.34–141-H6) (receptor, N-glycosylated (sites not given)) TTACQEANYGALLRELCLTQFQVDMEAVGETLWCDWGRTIRSYRELADCTWHMAEKLGCFWPNAEVDRFFLAVHGRYFRSCPISGRAVGSAGSAGSAIEPKPFLYVVGRKKMMDAQYKCYDRMQQLPAYQGEGPYCNRTWDGWLCWDDTPAGVLSYQFCPDYFPDFDPSEKVTKYCDEKGVWFKHPENNRTWSNYTMCNAFTPEK	1.76
amylin receptor 1 extracellular domain with calcitonin receptor E123D (hRAMP1.24–111-(GSA)3-hCTR.34–141.E123D-H6) (receptor, N-glycosylated (sites not given)) TTACQEANYGALLRELCLTQFQVDMEAVGETLWCDWGRTIRSYRELADCTWHMAEKLGCFWPNAEVDRFFLAVHGRYFRSCPISGRAVGSAGSAGSAIEPKPFLYVVGRKKMMDAQYKCYDRMQQLPAYQGEGPYCNRTWDGWLCWDDTPAGVLSYQFCPDYFPDFDPSEKVTKYCDEKGVWFKHPDNNRTWSNYTMCNAFTPEK	2.13
amylin receptor 1 extracellular domain with calcitonin receptor D97A (hRAMP1.24–111-(GSA)3-hCTR.34–141.D97A-H6) (receptor, N-glycosylated (sites not given)) TTACQEANYGALLRELCLTQFQVDMEAVGETLWCDWGRTIRSYRELADCTWHMAEKLGCFWPNAEVDRFFLAVHGRYFRSCPISGRAVGSAGSAGSAIEPKPFLYVVGRKKMMDAQYKCYDRMQQLPAYQGEGPYCNRTWDGWLCWDDTPAGVLSYQFCPAYFPDFDPSEKVTKYCDEKGVWFKHPENNRTWSNYTMCNAFTPEK	1.79
amylin receptor 1 extracellular domain with calcitonin receptor E123A (hRAMP1.24–111-(GSA)3-hCTR.34–141.E123A-H6) (receptor, N-glycosylated (sites not given)) TTACQEANYGALLRELCLTQFQVDMEAVGETLWCDWGRTIRSYRELADCTWHMAEKLGCFWPNAEVDRFFLAVHGRYFRSCPISGRAVGSAGSAGSAIEPKPFLYVVGRKKMMDAQYKCYDRMQQLPAYQGEGPYCNRTWDGWLCWDDTPAGVLSYQFCPDYFPDFDPSEKVTKYCDEKGVWFKHPANNRTWSNYTMCNAFTPEK	2.11

Data request, read-out log10 of Kd, for amylin receptor 1 extracellular domain with calcitonin receptor N124D (hRAMP1.24–111-(GSA)3-hCTR.34–141.N124D-H6) (receptor, N-glycosylated (sites not given)) TTACQEANYGALLRELCLTQFQVDMEAVGETLWCDWGRTIRSYRELADCTWHMAEKLGCFWPNAEVDRFFLAVHGRYFRSCPISGRAVGSAGSAGSAIEPKPFLYVVGRKKMMDAQYKCYDRMQQLPAYQGEGPYCNRTWDGWLCWDDTPAGVLSYQFCPDYFPDFDPSEKVTKYCDEKGVWFKHPEDNRTWSNYTMCNAFTPEK
2.91
